- Test system: Venezuelan equine encephalitis virus
- Experimental details: Antiviral activity against VEEV TC-83 infected in human NHDF cells assessed as reduction of virus titer treated with cells at 1 hr prior to infection and measured at 24 hrs post-infection by plaque assay
- Format: functional
- Experimental parameters: TC-83, NHDF, time 25 hrs
Listed below: EC90 values for each entry.

[
  {
    "Structure string": "CSc1ncccc1C(=O)Nc1nc(-c2cccc(-c3cccc(C#N)c3)c2)cs1",
    "EC90 / nM": 350
  },
  {
    "Structure string": "CSc1ncccc1C(=O)Nc1nc(-c2cccc(Nc3cccc(C#N)c3)c2)cs1",
    "EC90 / nM": 600
  },
  {
    "Structure string": "CSc1ncccc1C(=O)Nc1nc(-c2cc(Nc3ccc(C#N)cc3)cc(N3CCOCC3)c2)cs1",
    "EC90 / nM": 450
  },
  {
    "Structure string": "CCOC(=O)N1CCN(c2cc(-c3ccc(C#N)cc3)cc(-c3csc(NC(=O)c4cccnc4SC)n3)c2)CC1",
    "EC90 / nM": 20
  },
  {
    "Structure string": "COc1cc(Nc2cccc(-c3csc(NC(=O)c4cccnc4SC)n3)c2)ccc1C#N",
    "EC90 / nM": 210
  },
  {
    "Structure string": "CSc1ncccc1C(=O)Nc1nc(-c2cccc(Nc3ccc(C#N)cc3)c2)cs1",
    "EC90 / nM": 190
  }
]

----------
- Experimental details: AUC in C57BL/6 mouse at 40 mg/kg, po
- Assay type: ADME, organism-based
- Experimental parameters: in vivo

[
  {
    "Structure string": "CSc1ncccc1C(=O)Nc1nc(-c2cccc(Nc3ccc(C#N)cc3)c2)cs1",
    "AUC / ng·h/mL": 15300
  }
]

----------
- Tgt: Heme oxygenase 1 (Homo sapiens)
- Sequence (P09601 whole entry): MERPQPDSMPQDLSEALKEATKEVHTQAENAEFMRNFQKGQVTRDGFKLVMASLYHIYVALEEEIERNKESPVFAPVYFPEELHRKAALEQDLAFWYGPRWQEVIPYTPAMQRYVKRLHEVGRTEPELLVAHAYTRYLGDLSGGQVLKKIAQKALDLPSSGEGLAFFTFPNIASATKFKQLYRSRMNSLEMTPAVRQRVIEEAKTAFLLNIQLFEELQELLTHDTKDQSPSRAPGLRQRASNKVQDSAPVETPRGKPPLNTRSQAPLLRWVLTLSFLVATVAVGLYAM
- Experimental details: Inhibition of HO-1 (unknown origin)
pEC50: −log10 of the molar value.

[
  {
    "Structure string": "CSc1ncccc1C(=O)Nc1nc(-c2cccc(Nc3ccc(C#N)cc3)c2)cs1",
    "pEC50": "< 4.30"
  }
]

----------
- Experimental details: Half life in C57BL/6 mouse at 1 mg/kg, iv
- Type: ADME, organism-based
- Experimental parameters: in vivo
Readout kind: half-life (h)

[
  {
    "Structure string": "CSc1ncccc1C(=O)Nc1nc(-c2cccc(Nc3ccc(C#N)cc3)c2)cs1",
    "Measured number": 1.78
  }
]

----------
- Test system: dengue virus type 2
- Experimental details: Antiviral activity against Dengue virus 2 NGC infected in human HEK293 cells assessed as log reduction of virus titer at 10 uM measured at 3 days post-infection by focus-forming assay
- Type: functional
- Experimental parameters: time 3 day

[
  {
    "Structure string": "COc1cc(Nc2cccc(-c3csc(NC(=O)c4cccnc4SC)n3)c2)ccc1C#N",
    "Tgt": "dengue virus type 2",
    "log(activity)": 3
  },
  {
    "Structure string": "CCOC(=O)N1CCN(c2cc(-c3ccc(C#N)cc3)cc(-c3csc(NC(=O)c4cccnc4SC)n3)c2)CC1",
    "Tgt": "dengue virus type 2",
    "log(activity)": 3.3
  },
  {
    "Structure string": "CSc1ncccc1C(=O)Nc1nc(-c2cccc(Nc3cccc(C#N)c3)c2)cs1",
    "Tgt": "dengue virus type 2",
    "log(activity)": 3.7
  },
  {
    "Structure string": "CSc1ncccc1C(=O)Nc1nc(-c2cc(Nc3ccc(C#N)cc3)cc(N3CCOCC3)c2)cs1",
    "Tgt": "dengue virus type 2",
    "log(activity)": 1.9
  },
  {
    "Structure string": "CSc1ncccc1C(=O)Nc1nc(-c2cccc(Nc3ccc(C#N)cc3)c2)cs1",
    "Tgt": "dengue virus type 2",
    "log(activity)": 2.6
  },
  {
    "Structure string": "CSc1ncccc1C(=O)Nc1nc(-c2cccc(-c3cccc(C#N)c3)c2)cs1",
    "Tgt": "dengue virus type 2",
    "log(activity)": 2.9
  }
]
